Measured melting point by item
REPORTED METRIC: melting point

> print(dat)
                                    molecule         result
 1       ON=C(c1ccccc1OCc1ccc(Cl)cc1)n1ccnc1  196 to 197 °C
 2                     O=C(CCCl)N(O)c1ccccc1    87 to 88 °C
 3  COc1ccc2sc(-c3ccc(OCCN4CCCC4)cc3)c(C(=O)c3ccc(OC4CCCCC4N4CCCCC4)cc3)c2c1 (stereo unspecified)    63 to 66 °C
 4           CNc1c(C)cc(N)c([N+](=O)[O-])c1C          57 °C
 5        CCOC(=O)Cc1ccc(NC(=O)Nc2ccccc2)cc1  153 to 155 °C
 6  O=C(O)C=Cc1ccccc1NC(=O)c1ccc(OCCCCc2ccccc2)cc1  129 to 131 °C
 7  CC1(N2C(=O)c3cccc([N+](=O)[O-])c3C2=O)C=CC(OC(F)(F)C(F)C(F)(F)F)=CC1 (stereo unspecified)         121 °C
 8    Nc1nc(N)c2c(ccc3c2cc(Cl)n3Cc2ccccc2)n1  285 to 286 °C
 9                      CCc1cc(C#N)c(OC)nc1C    59 to 61 °C
10                 COc1c(C)c(C)c(OC)c(CO)c1C  121 to 122 °C
11  CC(O)(c1ccc(Cl)cc1)c1cc2ccccc2o1 (stereo unspecified)    64 to 66 °C
12  CC1=C(C(=O)N(C)Cc2ccc(Cl)cc2Cl)SC2=NCCN21    55 to 60 °C
13  CCN(CC)CCn1cc2c(c1)-c1ccc(Cl)cc1C(c1ccccc1Cl)=NC2  130 to 131 °C
14  COc1c(CCCI)cccc1OCc1coc(/C=C/c2ccccc2)n1  103 to 104 °C
15  COc1cc2nc(N3CCN(c4nc5ccccc5[nH]4)CC3)nc(N)c2cc1OC       > 250 °C
16                         Nc1nccc2[nH]cnc12  260 to 262 °C
17  Cc1nc(N)c2ncn(Cc3cc(-c4ccc(F)cc4)no3)c2c1C  244 to 246 °C
18                 O=c1[nH]cnc(C(F)(F)F)c1Cl  191 to 192 °C
19  O=S(=O)(C1CC1)C(F)(F)C(O)(Cn1cncn1)c1ccc(F)cc1 (single isomer, unassigned; (+))  144 to 145 °C
20  COc1ccccc1C(=O)Nc1ccc(C(=O)N2Cc3cccn3Cc3ccccc32)cc1  185 to 188 °C
21  CC(=O)NC(C)c1ccc(CN2CCN(c3cccc(F)n3)CC2)cc1 (stereo unspecified)  109 to 111 °C

* * *

The compounds listed here are annotated with their melting point.
REPORTED METRIC: melting point

> print(dat)
                                    compound  reported.metric         result
 1  CC(=Nc1ccc2c(c1)C(=O)c1ccc(N=C(C)N3CCCCC3)cc1C2=O)N1CCCCC1    melting point  233 to 235 °C
 2  CC(C)(NC(=O)C(CS)Cc1ccccc1)C(=O)OCc1ccccc1 (stereo not given)    melting point    53 to 56 °C
 3  Cn1ccnc1SCc1nc(-c2ccc3c(c2)OCO3)c2cc3c(cc2n1)OCO3    melting point  155 to 160 °C
 4  COc1cc(C(CBr)(OC)OC)ccc1OS(=O)(=O)c1ccccc1    melting point         134 °C
 5     Cc1cc(=O)n2cccc(OCc3ccc(Cl)cc3Cl)c2n1    melting point  180 to 182 °C
 6  CC(=O)OCN1C(=O)CN(CCN2CC(=O)N(COC(C)=O)C(=O)C2)CC1=O    melting point  178 to 181 °C
 7                 CCOC(=O)Cc1csc(NC(N)=O)n1    melting point  173 to 174 °C
 8  CC(C)C1C(C=C(Br)Br)=CC=CN1C12CC3CC(CC(C3)C1)C2 (stereo not given)    melting point  176 to 177 °C
 9                        N=C(N)CSc1nnc(S)s1    melting point  184 to 187 °C
10  O=C(O)c1nccnc1N1CCN(CC(O)CO)CC1 (stereo not given)    melting point  175 to 184 °C

* * *

The entries below come with measured melting point values attached.
REPORTED METRIC: melting point

> print(dat)
                                    compound           result
 1        Cc1ccc(COc2ccc(C=NCc3ccco3)cc2)cc1            71 °C
 2             CCOc1cccc(NCCSCc2[nH]cnc2C)n1           172 °C
 3            CCOc1cc(F)cc2c1c(CCN(C)C)cn2CC  77.1 to 78.2 °C
 4  CCC(C(=O)N(C)C)C(C#N)(c1ccccc1)c1ccccc1 (stereo unspecified)    170 to 172 °C
 5      FC(F)c1ccccc1C=C1c2ccccc2CCc2ccccc21          13.3 °C
 6  CCN(CC)C(=O)NC1CC2c3cccc4[nH]c(CC#CO)c(c34)CC2N(C)C1 (stereo unspecified)    151 to 154 °C
 7               CCOc1c(C=O)sc(NC(C)=O)c1C#N    276 to 277 °C
 8  COc1cccc2c(CCN(C3CCC3)C3COc4c(F)ccc(C(N)=O)c4C3)coc12 (stereo unspecified)    135 to 145 °C
 9  Cc1ccc(Nc2c3ccccc3nc3c(C)cccc23)cc1NC(=O)Oc1ccc(N(CCCl)CCCl)cc1    154 to 156 °C
10  CNC(=O)NC(=O)C(CC1CCCC1)c1ccc(S(C)(=O)=O)c([N+](=O)[O-])c1 (stereo unspecified)    241 to 242 °C
11  CC(=O)Nc1c(C)c2c(c(C)c1[N+](=O)[O-])OC(C)(C)C2    203 to 204 °C
12  CCc1nc(-c2ccc(OCCCN3C(=O)c4ccccc4C3=O)cc2)no1    135 to 136 °C
13                 CN1CCN(c2cncc(Cl)n2)CC1=O    122 to 123 °C
14  CC(CCC=O)C1CC=C2C3=C(CCC21C)C1(C)CCC(=O)C(C)(C)C1CC3 (stereo unspecified)    96.5 to 97 °C
15  COc1ccc2c(c1)C(C(=O)N(Cc1ccc3c(c1)OCO3)c1ccc(C(C)C)cc1)CCC2 (stereo unspecified)      97 to 98 °C
16  O=C1NCN2c3ccc(Cl)cc3[C@H]3CCN4CCC[C@H]1[C@H]4[C@H]32 (racemic)         > 250 °C
17               CCc1cc2cc(OC)c(Cl)c(Cl)c2s1    73 to 74.5 °C
18  OCC1OC(n2ccnn2)C(O)C1O (stereo unspecified)    123 to 125 °C
19  O=c1[nH]c(-c2c(F)cccc2F)nn1-c1ccccc1C(F)(F)F    259 to 260 °C
20  NC(=O)C(CCO)N1CCCC1=O (stereo unspecified)    164 to 165 °C
21  COC(=O)c1ccc(SCc2c(O[C@H](Cn3ccnc3)c3ccccc3)ccc3c2CCCC3=O)cc1            75 °C

* * *

Collected melting point values appear next to each entry.
REPORTED METRIC: melting point (°C)

> print(dat)
                                   compound  reported.metric  numeric.readout
1  CC(=O)NC[C@H]1CN(c2ccc(/C=C3\C(=O)N(c4ccccc4)N=C3C(C)(C)C)cc2)C(=O)O1    melting point               70
2  COc1ccc(-c2cc(Cl)cc3c2NC(CN)CO3)c(C)c1 (stereo not given)    melting point               98

* * *

REPORTED METRIC: melting point

> print(dat)
                                   compound  reported.metric         result
1  O=C(N[C@H]1CCc2ccc(O)cc2C1)[C@H](O)c1ccc(OCc2ccccc2)cc1    melting point  137 to 139 °C
2  CC(Oc1ccc2nc(NC(=O)NCCN3CCC(Cc4ccccc4)CC3)sc2c1)c1c(Cl)ccc(F)c1Cl (stereo not drawn)    melting point  133 to 139 °C
3  CCC(C)(C)c1ccc(Oc2ccc(C(=O)c3ccc(Oc4ccc(C(C)(C)CC)cc4C(C)(C)CC)cc3)cc2)c(C(C)(C)CC)c1    melting point    54 to 56 °C
4  CCOC(=O)c1nc(NCC(c2ccccc2)c2ccccc2)c2ncn([C@@H]3O[C@H](CO)[C@H]4OC(C)(C)O[C@H]43)c2n1    melting point  126 to 128 °C
5  CN(C[C@H]1CC[C@H](NC(=O)OCc2ccccc2)CC1)C1CCOCC1    melting point    81 to 84 °C
6               O=CC(=Cc1ccccc1)c1ccc(F)cc1    melting point    87 to 94 °C
7  CC(C)(C)c1ccc(CNC(=O)C(Cc2ccccc2)NC(=O)Nc2n[nH]c(=S)s2)cc1 (stereo not drawn)    melting point  213 to 214 °C
8  CN(CCO)C(=O)Nc1ccc2c(c1)C(c1ccccc1F)=NCC(=O)N2C    melting point  196 to 198 °C

Recorded values, source a melting point compilation (Tetko et al.; mined from patent text by program, amines drawn as free bases though some values may be those of a salt).
